# test target: HEK cells stably transfected with tetracycline inducible hNR1 and hNR2A (Homo sapiens, UniProt Q05586+Q12879)
# Construct: expressed in transfected cells; host or cells: HEK cells, stably transfected, tetracycline/doxycycline inducible
# Sequence (Q12879 23-1464, other chains not shown): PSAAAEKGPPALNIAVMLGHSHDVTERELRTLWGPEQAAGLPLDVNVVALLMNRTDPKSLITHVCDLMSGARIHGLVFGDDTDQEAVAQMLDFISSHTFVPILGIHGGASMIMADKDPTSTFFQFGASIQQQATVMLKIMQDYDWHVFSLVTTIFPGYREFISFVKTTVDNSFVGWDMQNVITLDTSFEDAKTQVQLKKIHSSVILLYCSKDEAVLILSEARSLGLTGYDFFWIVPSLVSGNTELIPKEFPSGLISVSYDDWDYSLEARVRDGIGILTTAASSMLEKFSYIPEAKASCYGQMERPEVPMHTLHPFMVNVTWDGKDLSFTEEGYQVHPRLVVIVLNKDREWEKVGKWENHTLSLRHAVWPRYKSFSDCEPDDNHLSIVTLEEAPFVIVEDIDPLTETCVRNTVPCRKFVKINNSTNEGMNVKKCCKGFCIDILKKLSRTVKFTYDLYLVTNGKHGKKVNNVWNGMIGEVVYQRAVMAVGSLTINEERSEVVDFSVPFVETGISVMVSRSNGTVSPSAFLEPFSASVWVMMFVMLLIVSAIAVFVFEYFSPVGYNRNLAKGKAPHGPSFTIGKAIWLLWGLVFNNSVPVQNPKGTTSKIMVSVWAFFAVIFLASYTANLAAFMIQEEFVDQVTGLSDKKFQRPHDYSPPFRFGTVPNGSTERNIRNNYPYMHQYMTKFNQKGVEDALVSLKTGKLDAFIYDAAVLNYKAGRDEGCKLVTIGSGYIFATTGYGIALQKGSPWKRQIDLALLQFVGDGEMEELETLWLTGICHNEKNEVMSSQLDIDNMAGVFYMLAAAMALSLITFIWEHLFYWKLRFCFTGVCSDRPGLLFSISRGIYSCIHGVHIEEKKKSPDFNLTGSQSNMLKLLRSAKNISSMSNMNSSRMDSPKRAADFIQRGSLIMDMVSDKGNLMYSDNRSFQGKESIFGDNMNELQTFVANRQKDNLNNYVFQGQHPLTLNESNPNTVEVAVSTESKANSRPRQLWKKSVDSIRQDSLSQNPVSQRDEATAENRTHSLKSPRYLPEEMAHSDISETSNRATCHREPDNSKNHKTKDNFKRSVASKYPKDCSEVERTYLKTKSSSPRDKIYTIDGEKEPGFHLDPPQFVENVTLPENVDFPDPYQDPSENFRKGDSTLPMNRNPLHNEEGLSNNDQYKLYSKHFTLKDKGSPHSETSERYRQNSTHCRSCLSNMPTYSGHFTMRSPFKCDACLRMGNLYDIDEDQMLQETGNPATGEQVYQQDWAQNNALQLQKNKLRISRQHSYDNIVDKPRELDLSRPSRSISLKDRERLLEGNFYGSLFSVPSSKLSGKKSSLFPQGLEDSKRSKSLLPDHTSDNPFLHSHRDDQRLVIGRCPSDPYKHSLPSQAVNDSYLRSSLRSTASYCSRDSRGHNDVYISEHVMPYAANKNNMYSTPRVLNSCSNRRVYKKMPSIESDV
# experiment notes: Assay 1: Cell-Based Assay, cytosolic calcium response to positive allosteric modulators (with 30 μM glycine and 300 nM L-glutamate, EC30)
# condition notes: Table 3; cytosolic calcium response, with 30 μM glycine and 300 nM L-glutamate (EC30); — = no plateau was reached
Collected EC50 values appear next to each entry.
Answer as a quantity: numeral, then unit.

Some compounds with recorded EC50:
{"compound": "CC[C@H](C)NC(=O)c1c(C)sc2nc(Cc3cccc(C(F)(F)F)c3F)cc(=O)n12", "EC50": "2940 nM"}
{"compound": "O=c1cc(Cn2nc(C(F)(F)F)cc2Cl)nc2scc(Cl)n12", "EC50": "21200 nM"}
{"compound": "CCNC(=O)c1c(C)sc2nc(CN(CC)c3ccccn3)cc(=O)n12", "EC50": "20800 nM"}

q: Would you kindly share the measured EC50 for CCNC(=O)c1c(C(C)=O)sc2nc(Cn3nc(C(F)(F)F)cc3Cl)cc(=O)n12 ?
a: 889 nM

q: Would you kindly share the measured EC50 for N#CC1CC1c1c(C(F)(F)F)sc2nc(Cc3cccc(C(F)(F)F)c3F)cc(=O)n12 (stereo not shown) [compound 94] ?
a: 2080 nM

q: Would you kindly share the measured EC50 for O=c1cc(Cc2cccc(C(F)(F)F)c2F)nc2sc3c(n12)C(CO)CC3 (stereo not shown) ?
a: 47100 nM

q: Would you kindly share the measured EC50 for Cc1sc2nc(CN(C)c3ccc(F)cn3)cc(=O)n2c1C1CC1CO (stereo not shown) ?
a: 175 nM

q: Would you kindly share the measured EC50 for CNC(=O)c1c(C)sc2nc(Cc3cc(F)c(F)cc3Cl)cc(=O)n12 ?
a: 15500 nM

q: Would you kindly share the measured EC50 for Cc1sc2nc(Cn3nc(C(F)(F)F)cc3Cl)cc(=O)n2c1C1CC1C#N (stereo not shown) [compound 104] ?
a: 34.1 nM

q: Would you kindly share the measured EC50 for Cc1sc2nc(Cc3cccc(C#N)c3F)c(F)c(=O)n2c1C(=O)NCC(F)(F)F ?
a: 9020 nM
